test: Apparent permeability assessed as membrane retention at 10 uM after 4 hrs by PAMPA; type: ADME
MEASUREMENT_NAME: Activity (%)
Report the figure in % without appending any unit label.

MOLECULE: CCCc1cc(-c2nc(-c3ccc(NS(C)(=O)=O)cc3)cs2)ccn1
VALUE_UNITS: %
Activity: 97.35
--
MOLECULE: CCCc1cc(-c2nc(-c3ccc(C)cc3)cs2)ccn1
VALUE_UNITS: %
Activity: 94
--
MOLECULE: CC(=O)CC(c1ccccc1)c1c(O)c2ccccc2oc1=O (centres undefined)
VALUE_UNITS: %
Activity: 0

Alright, here's another molecule for you.
q: Recorded Activity of CCCc1cc(-c2nc(-c3ccc(NC(C)C)cc3)cs2)ccn1 , please.
a: 93.95
